TESTED SYSTEM: Luciferin 4-monooxygenase (Photinus pyralis) (UniProt P08659)
PROTOCOL NOTES: qHTS of Nrf2 Activators: Hit Validation in Secondary FLuc Assay; note: nearly all actives have a fitted effect of over 65% in size
RECORDED CONDITIONS: firefly luciferase inhibition counter-screen, luminescence; series mostly up to 57.5 µM
Among all 1,100 compounds or so, about 390 (35%) were called active. Another 30% or so got no clear call; they are omitted. Calls come from the whole dose curve; as a rule, active = well fitted inhibition curve with a large enough effect; inconclusive = small, poorly fitted or top-dose-only effect; inactive = flat fitted curve, though single readings scatter. The list shows a part of the results.
Outcome codes: active, inactive

>  <MOLECULE>
COc1ccc(Cc2c(-c3ccccc3)nc3c4ccccc4ccn23)c(C)c1

>  <TESTED SYSTEM>
Luciferin 4-monooxygenase (Photinus pyralis) (UniProt P08659)

>  <CLASS LABEL>
active

$$$$
>  <MOLECULE>
Cn1nc(C(=O)Nc2c(-c3ccccc3)nc3sccn23)c2ccccc2c1=O

>  <TESTED SYSTEM>
Luciferin 4-monooxygenase (Photinus pyralis) (UniProt P08659)

>  <CLASS LABEL>
inactive

$$$$
>  <MOLECULE>
Cn1c(CC2C(=O)Nc3ccc(Br)cc32)nc2ccccc2c1=O (stereo not given)

>  <TESTED SYSTEM>
Luciferin 4-monooxygenase (Photinus pyralis) (UniProt P08659)

>  <CLASS LABEL>
inactive

$$$$
>  <MOLECULE>
CCCn1c(-c2cccs2)nc2nc3ccccc3nc21

>  <TESTED SYSTEM>
Luciferin 4-monooxygenase (Photinus pyralis) (UniProt P08659)

>  <CLASS LABEL>
active

$$$$
>  <MOLECULE>
COc1cc(-c2noc(-c3cccs3)n2)cc(OC)c1OC

>  <TESTED SYSTEM>
Luciferin 4-monooxygenase (Photinus pyralis) (UniProt P08659)

>  <CLASS LABEL>
inactive

$$$$
>  <MOLECULE>
COc1cc(OC)cc(-c2nc3ccccc3s2)c1

>  <TESTED SYSTEM>
Luciferin 4-monooxygenase (Photinus pyralis) (UniProt P08659)

>  <CLASS LABEL>
active

$$$$
>  <MOLECULE>
O=C(/C=C/c1cccs1)c1ccco1

>  <TESTED SYSTEM>
Luciferin 4-monooxygenase (Photinus pyralis) (UniProt P08659)

>  <CLASS LABEL>
active

$$$$
>  <MOLECULE>
CCOc1ccccc1NC(=O)C1COc2ccccc2O1 (stereo not given)

>  <TESTED SYSTEM>
Luciferin 4-monooxygenase (Photinus pyralis) (UniProt P08659)

>  <CLASS LABEL>
inactive

$$$$
>  <MOLECULE>
COc1nc(-c2ccccc2)cc(-c2ccccc2)n1

>  <TESTED SYSTEM>
Luciferin 4-monooxygenase (Photinus pyralis) (UniProt P08659)

>  <CLASS LABEL>
inactive

$$$$
>  <MOLECULE>
Cc1cc(C)c2c(NC(=S)NC(=O)c3ccccc3)nn(C)c2n1

>  <TESTED SYSTEM>
Luciferin 4-monooxygenase (Photinus pyralis) (UniProt P08659)

>  <CLASS LABEL>
inactive

$$$$
>  <MOLECULE>
Cc1ccc2cccc(NC(=S)NC(=O)c3ccccc3)c2n1

>  <TESTED SYSTEM>
Luciferin 4-monooxygenase (Photinus pyralis) (UniProt P08659)

>  <CLASS LABEL>
active

$$$$
>  <MOLECULE>
Cc1ccc2cccnc2c1NC(=S)NC(=O)c1ccccc1

>  <TESTED SYSTEM>
Luciferin 4-monooxygenase (Photinus pyralis) (UniProt P08659)

>  <CLASS LABEL>
active

$$$$
>  <MOLECULE>
O=C(N/N=C/c1ccc(Br)s1)c1cccs1

>  <TESTED SYSTEM>
Luciferin 4-monooxygenase (Photinus pyralis) (UniProt P08659)

>  <CLASS LABEL>
active

$$$$
>  <MOLECULE>
Cc1ccsc1/C=N/N=C1\C(=O)Nc2ccccc21

>  <TESTED SYSTEM>
Luciferin 4-monooxygenase (Photinus pyralis) (UniProt P08659)

>  <CLASS LABEL>
active

$$$$
>  <MOLECULE>
COc1ccc(Cl)cc1NC(=O)c1cc(-c2ccco2)on1

>  <TESTED SYSTEM>
Luciferin 4-monooxygenase (Photinus pyralis) (UniProt P08659)

>  <CLASS LABEL>
inactive

$$$$
>  <MOLECULE>
CC1CN(c2sc(S(C)(=O)=O)nc2S(=O)(=O)c2ccc(Cl)cc2)CC(C)O1 (stereo not given)

>  <TESTED SYSTEM>
Luciferin 4-monooxygenase (Photinus pyralis) (UniProt P08659)

>  <CLASS LABEL>
inactive

$$$$
>  <MOLECULE>
Cn1c(/C=C/c2cccc(Br)c2)nc2ccccc2c1=O

>  <TESTED SYSTEM>
Luciferin 4-monooxygenase (Photinus pyralis) (UniProt P08659)

>  <CLASS LABEL>
active

$$$$
>  <MOLECULE>
CCOc1ncccc1-c1nc(-c2cccs2)no1

>  <TESTED SYSTEM>
Luciferin 4-monooxygenase (Photinus pyralis) (UniProt P08659)

>  <CLASS LABEL>
active

$$$$
>  <MOLECULE>
O=C(Nc1ccccc1[N+](=O)[O-])C1COc2ccccc2O1 (stereo not given)

>  <TESTED SYSTEM>
Luciferin 4-monooxygenase (Photinus pyralis) (UniProt P08659)

>  <CLASS LABEL>
active

$$$$
>  <MOLECULE>
CCOc1ccsc1C(=O)NNC(=O)c1ccco1

>  <TESTED SYSTEM>
Luciferin 4-monooxygenase (Photinus pyralis) (UniProt P08659)

>  <CLASS LABEL>
inactive

$$$$
>  <MOLECULE>
COc1ccc(NC(=O)CSc2ccc(-c3ccco3)nn2)c(OC)c1

>  <TESTED SYSTEM>
Luciferin 4-monooxygenase (Photinus pyralis) (UniProt P08659)

>  <CLASS LABEL>
active

$$$$
>  <MOLECULE>
Cc1cccc(C)c1NC(=S)NC(=O)c1cccc(Cl)c1

>  <TESTED SYSTEM>
Luciferin 4-monooxygenase (Photinus pyralis) (UniProt P08659)

>  <CLASS LABEL>
inactive

$$$$
>  <MOLECULE>
Cc1ccc(Cc2c(-c3ccco3)nc3c4ccccc4ccn23)cc1

>  <TESTED SYSTEM>
Luciferin 4-monooxygenase (Photinus pyralis) (UniProt P08659)

>  <CLASS LABEL>
active

$$$$
>  <MOLECULE>
Cc1csc(NC(=S)NC(=O)c2ccccc2)n1

>  <TESTED SYSTEM>
Luciferin 4-monooxygenase (Photinus pyralis) (UniProt P08659)

>  <CLASS LABEL>
active

$$$$
>  <MOLECULE>
Clc1cccc(Cc2c(-c3ccccc3)nc3c4ccccc4ccn23)c1

>  <TESTED SYSTEM>
Luciferin 4-monooxygenase (Photinus pyralis) (UniProt P08659)

>  <CLASS LABEL>
active

$$$$
